Source: ChEMBL document CHEMBL4251741

# Test Protocol: Selectivity index, ratio of CC50 for HEL cells to EC50 for Herpes simplex virus 2 G infected in HEL cells
# Assay type: toxicity, cell-based
# Details: human, read-out: Ratio CC50/EC50
Readout Type: selectivity ratio

> print(dat)
                                   compound  result
1  CCCCCOC(=O)[C@H](Cc1ccccc1)NP1(=O)CO[C@@H](Cn2cnc3c(N)ncnc32)CO1 (some centres not stated)  > 4400
2  CCCCCOC(=O)[C@@H](NP1(=O)CO[C@@H](Cn2cnc3c(N)ncnc32)CO1)[C@@H](C)CC (some centres not stated)  > 4400

---

# Test Protocol: Half life in human plasma at 1 uM by HPLC-MS/MS analysis
# Assay type: ADME, cell-free
Readout Type: half-life at 1 µM (h)

> print(dat)
                                   compound       readout.type  censoring.sign  numeric.value
1  CCCCCOC(=O)[C@@H](NP(=O)(CO[C@H](CO)Cn1cnc2c(N)ncnc21)N[C@H](C(=O)OCCCCC)C(C)C)C(C)C  half-life at 1 µM               >              2
2  CCCCCOC(=O)C[C@H](NP1(=O)CO[C@@H](Cn2cnc3c(N)ncnc32)CO1)C(=O)OCCCCC (stereo partly drawn)  half-life at 1 µM               =          0.367
3  CCCCCOC(=O)[C@H](CC(C)C)NP1(=O)CO[C@@H](Cn2cnc3c(N)ncnc32)CO1 (stereo partly drawn)  half-life at 1 µM               =            1.4
